System: OVCAR-5 ovarian
Test: NCI-60 one-dose screen, 48 h
Settings: 10 µM unless noted
The panel holds about 83,000 compounds, 20% with a hit somewhere; the sample as a whole holds those more often. Active and inactive are the calls of the source. How the source made its calls: active means growth percent below 10; inactive means the rest.
Choose one outcome from this list and give only that: active, inactive

# example entries with known answers
- compound: "Clc1ccc(N/N=C/c2ccccn2)nc1"
  label: "inactive"
- compound: "CC1(C)CC(=O)C2=C(C1)Oc1nc(N)c(C#N)c(N)c1C2c1ccc(F)cc1 (stereo not drawn)"
  label: "inactive"
- compound: "O=C(N/N=C\\c1ccc(-c2ccc(Br)cc2)o1)c1cc2oc(-c3cccc(C(F)(F)F)c3)cc2[nH]1"
  label: "inactive"
- compound: "Cc1cc2cn3c4ccc(O)cc4nc(N)c3c2cc1C"
  label: "inactive"
- compound: "Nc1nc2c(c3ncncc13)C(c1cccc(C(F)(F)F)c1)Cc1ncncc1-2 (stereo not drawn)"
  label: "inactive"
- compound: "COc1cc2oc(-c3ccc(NC(=O)c4ccccc4)cc3)cc(=O)c2c(OC)c1OC"
  label: "inactive"
- compound: "CC(=O)Nc1nc(C)c(C(=O)N/N=C/N2CCOCC2)s1"
  label: "inactive"
- compound: "COc1cccc2c1n([O-])c1cccc(OC)c1[n+]2=O"
  label: "inactive"

Query :: Lab log entry: CCN(CC)C(=O)C1(C)CCCC2(C)c3cc(OC(C)=O)ccc3CCC12 (stereo not drawn) — outcome as called in the assay?
Result :: inactive

Query :: Lab log entry: `CCCCCCCCCCCCCCCCNC(=O)Nc1ccc(C)c(NC(=O)NCCCCCCCCCCCCCCCC)c1` — outcome as called in the assay?
Result :: inactive

Query :: Lab log entry: `O=c1c(N=Nc2nccs2)c(-c2ccccc2)[nH]n1-c1nc(-c2ccccc2)cs1` — outcome as called in the assay?
Result :: inactive

Query :: Lab log entry: `CCn1cc(C(=O)O)c(=O)c2cc(F)c(N3CCN(S(=O)(=O)c4ccc(Cl)cc4)CC3)cc21` — outcome as called in the assay?
Result :: inactive

Query :: Lab log entry: `C/C=C/C/C=C/[C@H](C)C[C@H](O)[C@@H]1C[C@@H]2O[C@H]2/C=C/[C@@H]2OC(C)(C)O[C@H]2/C=C/C[C@H](C)CC(=O)O1` — outcome as called in the assay?
Result :: inactive
